Source listed as ChEMBL document CHEMBL1143035.

test: Cytotoxicity against human erythrocytes assessed as hemolytic activity at 50 uM; type: cell-based, Erythrocyte; conditions: read-out: Activity
Structures can show the parent of a compound that is named as a salt.
measurement_name: hemolysis at 50 µM (%)
Write it as a number; the unit % goes unstated.

Give hemolysis at 50 µM for the following compound: CCCCCCCCN=c1ccn(CCCCCCCCCCn2ccc(=NCCCCCCCC)cc2)cc1 [OCTENIDINE HYDROCHLORIDE] 43

###

target: UniProt Q9P8P2; assay: Inhibition of phospholipase B activity of PLB1 in Cryptococcus neoformans var. grubii H99 assessed as loss of 1,2-di[1-14C]palmitoyl phosphatidylcholine at 250 uM
Sequence (Q9P8P2 whole entry): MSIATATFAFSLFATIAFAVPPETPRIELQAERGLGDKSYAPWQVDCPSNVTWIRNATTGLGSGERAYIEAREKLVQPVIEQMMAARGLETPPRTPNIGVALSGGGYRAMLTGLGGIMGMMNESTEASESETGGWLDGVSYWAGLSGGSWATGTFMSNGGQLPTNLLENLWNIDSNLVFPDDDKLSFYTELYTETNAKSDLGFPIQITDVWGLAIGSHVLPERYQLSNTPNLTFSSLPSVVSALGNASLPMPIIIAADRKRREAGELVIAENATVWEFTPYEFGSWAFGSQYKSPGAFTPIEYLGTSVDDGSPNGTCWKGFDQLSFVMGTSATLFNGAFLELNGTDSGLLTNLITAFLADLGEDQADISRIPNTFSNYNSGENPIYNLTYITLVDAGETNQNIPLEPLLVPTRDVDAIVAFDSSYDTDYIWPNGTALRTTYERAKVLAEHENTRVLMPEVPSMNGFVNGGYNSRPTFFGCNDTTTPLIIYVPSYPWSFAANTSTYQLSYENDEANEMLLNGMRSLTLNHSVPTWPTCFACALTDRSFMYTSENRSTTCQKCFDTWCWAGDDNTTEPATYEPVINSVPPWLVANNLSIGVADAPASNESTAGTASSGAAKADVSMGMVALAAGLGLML
Counter-ions that a name gives are not always drawn.
measurement_name: inhibition (%)
A number alone suffices; assume %.

Entry Nc1cccc[n+]1CCCCCCCCCCCC[n+]1ccccc1N.[Br-].[Br-] needs its inhibition filled in; supply it. 40

Please report inhibition for the following compound: CCCCCCCCN=c1ccn(CCCCCCCCCCn2ccc(=NCCCCCCCC)cc2)cc1 [OCTENIDINE HYDROCHLORIDE] 100

// fetch inhibition given entry CN(C)c1cc[n+](CCCCCCCCCCCC[n+]2ccc(N(C)C)cc2)cc1.[Br-].[Br-] 40

For the compound Br.Br.N=c1ccn(CCCCCCCCCCCCn2ccc(=N)cc2)cc1 , report inhibition. 40

Annotate the compound Nc1cc[n+](CCCCCCCCCCCCCCCC[n+]2ccc(N)cc2)cc1.[Br-].[Br-] with its measured inhibition. 40
